Assayed system: Recombinant human MASP2 enzyme (fragment corresponding to amino acids 297-686, C-terminal His Tag) (human, UniProt O00187 297-686)
Sequence (O00187 other isoform, or with tags, fused parts or gaps limits assumed): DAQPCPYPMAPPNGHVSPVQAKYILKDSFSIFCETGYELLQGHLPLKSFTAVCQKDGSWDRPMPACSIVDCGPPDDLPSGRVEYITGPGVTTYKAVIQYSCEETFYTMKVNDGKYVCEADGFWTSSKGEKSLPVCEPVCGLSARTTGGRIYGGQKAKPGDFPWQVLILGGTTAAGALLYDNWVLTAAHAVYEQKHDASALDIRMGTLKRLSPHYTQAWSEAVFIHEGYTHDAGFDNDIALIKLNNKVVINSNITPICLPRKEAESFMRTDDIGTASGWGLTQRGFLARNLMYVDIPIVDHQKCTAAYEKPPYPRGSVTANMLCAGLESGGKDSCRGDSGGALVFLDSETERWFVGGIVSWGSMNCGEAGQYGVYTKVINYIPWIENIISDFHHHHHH
Assay info: cell-based or functional assay
Bridge positions count the residues as written; N and C are the ends. Square brackets hold non-standard residues; d marks the D form. Ends that are not written are not given here. Oic = O=C(O)[C@@H]1C[C@@H]2CCCC[C@@H]2N1; Pen = CC(C)(S)[C@H](N)C(=O)O; Abu = CC[C@H](N)C(=O)O; Sar = CNCC(=O)O
Measured attribute: human MASP2 IC50 (nM)

Binder: [Sar]ICSRSLP[Oic]I[Pen]IPE-OH (disulfide 3-11; N-terminus assumed; SMILES CC[C@H](C)[C@H](NC(=O)CNC)C(=O)N[C@H]1CSSC(C)(C)[C@@H](C(=O)N[C@H](C(=O)N2CCC[C@H]2C(=O)N[C@@H](CCC(=O)O)C(=O)O)[C@@H](C)CC)NC(=O)[C@H]([C@@H](C)CC)NC(=O)[C@@H]2C[C@@H]3CCCC[C@@H]3N2C(=O)[C@@H]2CCCN2C(=O)[C@H](CC(C)C)NC(=O)[C@H](CO)NC(=O)[C@H](CCCNC(=N)N)NC(=O)[C@H](CO)NC1=O) [((N-Me)G)-IC+SRSLP-(Oic)-I-(Pen)+IPE-OH]
Experimental result: 180
//
Binder: [Abu]ICSRSLPPICIPD-NH2 (disulfide 3-11; N-terminus assumed; SMILES CC[C@H](N)C(=O)N[C@H](C(=O)N[C@H]1CSSC[C@@H](C(=O)N[C@H](C(=O)N2CCC[C@H]2C(=O)N[C@@H](CC(=O)O)C(N)=O)[C@@H](C)CC)NC(=O)[C@H]([C@@H](C)CC)NC(=O)[C@@H]2CCCN2C(=O)[C@@H]2CCCN2C(=O)[C@H](CC(C)C)NC(=O)[C@H](CO)NC(=O)[C@H](CCCNC(=N)N)NC(=O)[C@H](CO)NC1=O)[C@@H](C)CC) [(Abu)-IC+SRSLPPIC+IPD-NH2]
Experimental result: 300
